# measurement notes: Pharmacokinetics in hGLP-1R mice after oral dosing
# Format: in vivo, male C57BL/6J hGLP-1R mouse
# assay conditions: male, C57BL/6J hGLP-1R, mouse, plasma, po, 0.3 mg/kg, hGLP-1R mouse plasma, PO 0.3 mg/kg, 0.25 h; read-out: Mean Concentration
observation type: concentration at 0.25 h (ng/mL)
State just the number; it will be interpreted in ng/mL.

compound	concentration at 0.25 h (ng/mL)
N#Cc1ccc(COc2cccc(C3CCN(Cc4nc5ccc(C(=O)O)cc5n4C[C@@H]4CCO4)CC3)n2)c(F)c1 [Reference Compound A, reference compound]	24.9

Here is another compound to look at.
**Q:** Given the compound N#Cc1ccc(COc2cccc(C3CCN(Cc4nc5ccc(C(=O)O)cc5n4Cc4cncs4)CC3)n2)c(F)c1 [Compound 2] , write its reported concentration at 0.25 h.
**A:** 78.3

###

Overview of reported concentration at 4 h across a group of compounds:
# measurement notes: Pharmacokinetics in hGLP-1R mice after oral dosing
# Assay type: in vivo, male C57BL/6J hGLP-1R mouse
# assay conditions: male, C57BL/6J hGLP-1R, mouse, plasma, po, 1 mg/kg, hGLP-1R mouse plasma, PO 1 mg/kg, 4 h, individual animals; read-out: Concentration
Answer with the figure and its unit, nothing else.

compound	concentration at 4 h
N#Cc1ccc(COc2cccc(C3CCN(Cc4nc5ccc(C(=O)O)cc5n4C[C@@H]4CCO4)CC3)n2)c(F)c1 [Reference Compound A, reference compound]	3.59 ng/mL

Here is another compound to look at.
**Q:** Given the compound `N#Cc1ccc(COc2cccc(C3CCN(Cc4nc5ccc(C(=O)O)cc5n4Cc4cncs4)CC3)n2)c(F)c1` , write its reported concentration at 4 h.
**A:** 7.58 ng/mL

###

# measurement notes: Pharmacokinetics in hGLP-1R mice after oral dosing
# Type: in vivo, male C57BL/6J hGLP-1R mouse
# assay conditions: male, C57BL/6J hGLP-1R, mouse, plasma, po, 3 mg/kg, hGLP-1R mouse plasma, PO 3 mg/kg, 4 h; read-out: Mean Concentration
observation type: concentration at 4 h (ng/mL)
State just the number; it will be interpreted in ng/mL.

**Q:** Given the compound N#Cc1ccc(COc2cccc(C3CCN(Cc4nc5ccc(C(=O)O)cc5n4Cc4cncs4)CC3)n2)c(F)c1 [Compound 2] , write its reported concentration at 4 h.
**A:** 84.4

###

# measurement notes: Pharmacokinetics in hGLP-1R mice after oral dosing
# Format: in vivo, male C57BL/6J hGLP-1R mouse
# assay conditions: male, C57BL/6J hGLP-1R, mouse, plasma, po, 0.3 mg/kg, hGLP-1R mouse plasma, PO 0.3 mg/kg, 8 h, individual animals; read-out: Concentration
observation type: concentration at 8 h

**Q:** Given the molecule `N#Cc1ccc(COc2cccc(C3CCN(Cc4nc5ccc(C(=O)O)cc5n4Cc4cncs4)CC3)n2)c(F)c1` , write its reported concentration at 8 h.
**A:** 2.34 ng/mL

###

# measurement notes: Pharmacokinetics in hGLP-1R mice after oral dosing
# Assay type: in vivo, male C57BL/6J hGLP-1R mouse
# assay conditions: male, C57BL/6J hGLP-1R, mouse, plasma, po, 3 mg/kg, hGLP-1R mouse plasma, PO 3 mg/kg, individual mice; read-out: MRT0-last
observation type: MRT last (h)
State just the number; it will be interpreted in h.

**Q:** Given the compound N#Cc1ccc(COc2cccc(C3CCN(Cc4nc5ccc(C(=O)O)cc5n4Cc4cncs4)CC3)n2)c(F)c1 [Compound 2] , write its reported MRT last.
**A:** 2.04

###

# measurement notes: Rat pharmacokinetics, oral dosing;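 further: oral gavage at 3 mg/kg in male Sprague-Dawley rats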
# Assay type: in vivo, Sprague-Dawley rats
# assay conditions: male, Sprague-Dawley, rat, plasma, po, 3 mg/kg, rat plasma, 3 mg/kg PO (0.3 mg/mL)
observation type: AUC(0-t)
Answer with the figure and its unit, nothing else.

Below are worked cases with known answers.
molecule	AUC(0-t)
N#Cc1ccc(COc2cccc(C3CCN(Cc4nc5ccc(C(=O)O)cc5n4Cc4cncs4)CC3)n2)c(F)c1	384 ng·h/mL
N#Cc1ccc(COc2cccc(C3CCN(Cc4nc5ccc(C(=O)O)cc5n4C[C@@H]4CCO4)CC3)n2)c(F)c1 [Reference Compound A, reference compound]	60.6 ng·h/mL
N#Cc1cc(F)c2c(c1)CCN(c1cccc(C3CCN(Cc4nc5ccc(C(=O)O)cc5n4Cc4cncs4)CC3)n1)C2	116 ng·h/mL

Here is another molecule to look at.
**Q:** Given the molecule `Cc1ncsc1Cn1c(CN2CCC(c3cccc(OCc4ccc(C#N)cc4F)n3)CC2)nc2ccc(C(=O)O)cc21` , write its reported AUC(0-t).
**A:** 28.3 ng·h/mL

###

Overview of reported Cmax across a group of compounds:
# measurement notes: Pharmacokinetics in hGLP-1R mice after oral dosing
# Format: in vivo, male C57BL/6J hGLP-1R mouse
# assay conditions: male, C57BL/6J hGLP-1R, mouse, plasma, po, 1 mg/kg, hGLP-1R mice, total, PO 1.0 mg/kg; read-out: Cmax Mean
# Procedure: IPGTT (120 min)—PK bleeding: 40 μL blood samples (all treatment groups) were collected from mice under the jaw at IPGTT-120 min after blood glucose measurement into pre-chilled EDTA-2K tubes. Blood samples were processed for plasma by centrifugation at 4° C., 3200×g for 10 min. […] The linear/log trapezoidal rule was applied in obtaining the PK parameters. Individual plasma concentration values that were below the lower limit of quantitation (LOQ) were excluded from the PK parameter calculation. […]
State just the number; it will be interpreted in ng/mL.

**Q:** Given the compound N#Cc1ccc(COc2cccc(C3CCN(Cc4nc5ccc(C(=O)O)cc5n4Cc4cncs4)CC3)n2)c(F)c1 [Compound 2] , write its reported Cmax.
**A:** 283

**Q:** Given the compound N#Cc1ccc(COc2cccc(C3CCN(Cc4nc5ccc(C(=O)O)cc5n4C[C@@H]4CCO4)CC3)n2)c(F)c1 [Reference Compound A, reference compound] , write its reported Cmax.
**A:** 49.7

###

# measurement notes: Pharmacokinetics in hGLP-1R mice after oral dosing
# Type: in vivo, male C57BL/6J hGLP-1R mouse
# assay conditions: male, C57BL/6J hGLP-1R, mouse, plasma, po, 1 mg/kg, hGLP-1R mouse plasma, PO 1 mg/kg, 0.25 h, individual animals; read-out: Concentration
observation type: concentration at 0.25 h (ng/mL)
State just the number; it will be interpreted in ng/mL.

compound	concentration at 0.25 h (ng/mL)
N#Cc1ccc(COc2cccc(C3CCN(Cc4nc5ccc(C(=O)O)cc5n4C[C@@H]4CCO4)CC3)n2)c(F)c1 [Reference Compound A, reference compound]	43.5

Here is another compound to look at.
**Q:** Given the compound `N#Cc1ccc(COc2cccc(C3CCN(Cc4nc5ccc(C(=O)O)cc5n4Cc4cncs4)CC3)n2)c(F)c1` , write its reported concentration at 0.25 h.
**A:** 320

###

# measurement notes: Metabolic stability in human hepatocytes
# Format: in vitro ADME
# assay conditions: cryopreserved hepatocytes; human hepatocytes, 1 μM
Entries whose half-life at 1 μM is below 4 h take criterion met; entries at or above 4 h take criterion not met.

compound	group label
[2H]C([2H])(Oc1cccc(C2CCN(Cc3nc4ccc(C(=O)O)cc4n3Cc3cncs3)CC2)n1)c1ccc(Cl)cc1F	criterion met
CC1(c2ccc(C#N)cc2F)Oc2cccc(C3CCN(Cc4nc5ccc(C(=O)O)cc5n4Cc4cncs4)CC3)c2O1 (centres unmarked)	criterion met
N#Cc1ccc(COc2ccnc(C3CCN(Cc4nc5ccc(C(=O)O)cc5n4Cc4cncs4)CC3)n2)c(F)c1	criterion met
N#Cc1ccc(COc2cccc(C3CCN(Cc4nc5ccc(C(=O)O)cc5n4C[C@@H]4CCO4)CC3)n2)c(F)c1 [Reference Compound A, reference compound]	criterion not met

Now look at this entry.
**Q:** Is the reported half-life at 1 μM for `O=C(O)c1ccc2nc(CN3CCC(c4nccc(OCc5ccc(Cl)cc5F)n4)CC3)n(Cc3cncs3)c2c1` strictly below 4 h?
**A:** criterion met

###

# measurement notes: Pharmacokinetics in hGLP-1R mice after oral dosing
# Assay type: in vivo, male C57BL/6J hGLP-1R mouse
# assay conditions: male, C57BL/6J hGLP-1R, mouse, plasma, po, 3 mg/kg, hGLP-1R mice, oral, across the doses tested (0.3, 1 and, for Compound 2, 3 mg/kg); read-out: median Tmax
observation type: Tmax
Answer with the figure and its unit, nothing else.

compound	result
N#Cc1ccc(COc2cccc(C3CCN(Cc4nc5ccc(C(=O)O)cc5n4Cc4cncs4)CC3)n2)c(F)c1 [Compound 2]	30 min

Here is another compound to look at.
**Q:** Given the compound N#Cc1ccc(COc2cccc(C3CCN(Cc4nc5ccc(C(=O)O)cc5n4C[C@@H]4CCO4)CC3)n2)c(F)c1 [Reference Compound A, reference compound] , write its reported Tmax.
**A:** 30 min

###

# measurement notes: Pharmacokinetics in hGLP-1R mice after oral dosing
# Format: in vivo, male C57BL/6J hGLP-1R mouse
# assay conditions: male, C57BL/6J hGLP-1R, mouse, plasma, po, 0.3 mg/kg, hGLP-1R mouse plasma, PO 0.3 mg/kg, mean; read-out: Tmax
observation type: Tmax (min)
State just the number; it will be interpreted in min.

compound	Tmax, min
N#Cc1ccc(COc2cccc(C3CCN(Cc4nc5ccc(C(=O)O)cc5n4C[C@@H]4CCO4)CC3)n2)c(F)c1 [Reference Compound A, reference compound]	25

Here is another compound to look at.
**Q:** Given the compound `N#Cc1ccc(COc2cccc(C3CCN(Cc4nc5ccc(C(=O)O)cc5n4Cc4cncs4)CC3)n2)c(F)c1` , write its reported Tmax.
**A:** 25
